# Tested on: DU-145 prostate
# method.summary: NCI tumour cell line growth inhibition, 48 h
readout.kind: TGI

>>> print(df.to_string())
                         compound  measured_value
0  Nc1c(C(=O)c2ccccc2)nnc2ccccc12         69.9 µM

Data point: O=S(=O)(c1ccc2ccccc2c1)N1CCN(S(=O)(=O)c2ccc3ccccc3c2)CC1 ; TGI = > 100 µM

Data point: CC(C)(CC1(C)NC(=O)NC1=O)OCc1ccccc1 (stereo unspecified) ; TGI = > 100 µM

Data point: COc1cc2c3c(n(CCCN4CCSCC4)c(=O)c2cc1OC)-c1cc2c(cc1C3=O)OCO2 ; TGI = > 100 µM

Data point: COc1cc2c(cc1OC)C(SC)C(=O)N(Cc1cccc(OC)c1OC)CC2 (stereo unspecified) ; TGI = > 23 µM

Data point: CCN(CC)Cc1cc(Nc2cc(C(F)(F)F)c(C#N)c3nc4ccccc4n23)ccc1O ; TGI = 15.7 µM

Data point: Cc1cc(C)c(S(=O)(=O)N(CCCN)OCCCN)c(C)c1 ; TGI = > 100 µM

Data point: Cc1ccc(C=C(C(=O)O)C(=O)O)o1 ; TGI = > 100 µM

Data point: O=C1CC(=O)NC(=NN2C(=O)/C(=C/c3ccc(Cl)cc3)N=C2c2ccccc2)N1 ; TGI = > 100 µM

Data point: Cc1ccccc1CNc1c2ccccc2nc2ccccc12 ; TGI = 10.1 µM

Data point: Cc1cc(C)nc(NC(=S)Nc2ccc(Cl)cc2)c1 ; TGI = > 100 µM

----------
# Tested on: SF-295 CNS
# method.summary: NCI tumour cell line growth inhibition, 48 h; in the data active = GI50 below about 0.43 µM; inactive = the rest
Just give me one of these, please: 1 (yes) = active, 0 (no) = inactive

Task item: // outcome(item) with item = COC(=O)C1=Nc2ccc(F)cc2/C1=C/c1sc(=S)[nH]c1O
Reply: 1 (yes)

Task item: // outcome(item) with item = O=C(Nc1cccc(-n2cc(-c3ccncc3)c(-c3ccc(O)c(Cl)c3)n2)c1)Nc1ccc(Cl)c(Cl)c1
Reply: 0 (no)

Task item: // outcome(item) with item = Oc1ccc(-c2[nH]c3ccccc3c2-c2nc3ccccc3o2)cc1
Reply: 0 (no)

Task item: // outcome(item) with item = Cc1nn2c(-c3nc4cc(Cl)c(Cl)cc4[nH]3)c(-c3ccc(F)cc3)nc2s1
Reply: 0 (no)

----------
# Tested on: UACC-257 melanoma
# method.summary: NCI tumour cell line growth inhibition, 48 h
Values of TGI greater than or equal to 20 µM map to Y; values below map to N.

Worked examples, 8 molecules total:
>>> print(df.to_string())
                                   molecule  assigned_class
0  O=C(O)Cc1ccc(Oc2nc3ccccc3nc2-c2ccccc2)cc1               Y
1  CC(C)c1cc(C(C)C)c(Cl)c(Cl)c1O (tested in a mixture with another compound)               Y
2            COc1ccc2nc(-c3ccc(O)cc3)ccc2c1               Y
3  CCN(CCNc1ccc(C)c2sc3cc(Cl)ccc3c(=O)c12)CC(C)(C)O               N
4  CC(C)C/C(=N\NC(=O)c1ccncc1)c1cc(Cl)ccc1O               N
5  COc1cccc(/C=C2/S/C(=N/Nc3nc(C)c(C(C)=O)s3)NC2=O)c1O               Y
6  Cc1nn2c(-c3nc4cc(Cl)c(Cl)cc4[nH]3)c(-c3ccc(F)cc3)nc2s1               Y
7  CN1CC[C@]23c4c5ccc(O)c4OC2c2[nH]ncc2C[C@H]3[C@H]1C5 (stereo not given in full)               Y

Next, consider the following molecule.
Task item: Given the entry Nc1ncnc2sc(Nc3ccccc3)nc12 , answer whether its TGI meets or surpasses 20 µM.
Reply: Y
